- System: SK-MEL-2 melanoma
- assay-remarks: NCI tumour cell line growth inhibition, 48 h
Parameter: GI50. Scope: all listed entries.

{"molecule": "Oc1cccc(-c2nc(-c3n[nH]c(=S)n3-c3ccccc3)cc3c2[nH]c2ccccc23)c1", "measured-on": "SK-MEL-2 melanoma", "GI50": "1.88 µM"}
{"molecule": "C[C@]12CCC(=O)CC1CC[C@@H]1C2CC[C@@]2(C)C1CC[C@@H]2OC(=O)CC[Se][Se]CCC(=O)O[C@H]1CCC2[C@@H]3CCC4CC(=O)CC[C@]4(C)C3CC[C@@]21C (some centres undefined)", "measured-on": "SK-MEL-2 melanoma", "GI50": "2.67 µM"}
{"molecule": "CC(=O)OC1CC2C(C)(C)C(=O)C=C[C@]2(C)C2CC[C@]3(C)C(OCC(=O)[C@H]3c3ccoc3)[C@]12C (some centres undefined)", "measured-on": "SK-MEL-2 melanoma", "GI50": "13.8 µM"}
{"molecule": "NCCN.O=C([O-])C(=O)[O-].O=C([O-])C(=O)[O-].[Co+3].[K+]", "measured-on": "SK-MEL-2 melanoma", "GI50": "> 100 µM"}
{"molecule": "Cc1ccc(NC2=N[C@]34CC(=O)CC[C@]3(C)[C@H]3CC[C@]5(C)C(=O)CC[C@H]5[C@@H]3C[C@@H]4S2)c(C)c1", "measured-on": "SK-MEL-2 melanoma", "GI50": "2.19 µM"}
{"molecule": "ClCCn1cnc2c(SCc3ccccc3Cl)ncnc21", "measured-on": "SK-MEL-2 melanoma", "GI50": "12.7 µM"}
{"molecule": "O=C(Nc1ccc([As]=[As]c2ccc(NC(=O)c3ccccc3)cc2)cc1)c1ccccc1 (centres undefined)", "measured-on": "SK-MEL-2 melanoma", "GI50": "0.334 µM"}
{"molecule": "O=C(N/N=C/c1c(Cl)cccc1Cl)c1cccnc1Nc1cccc(C(F)(F)F)c1", "measured-on": "SK-MEL-2 melanoma", "GI50": "11.1 µM"}
{"molecule": "Cc1cc(C2CC(O)C(CO)O2)c(Cl)cc1Cl (centres undefined)", "measured-on": "SK-MEL-2 melanoma", "GI50": "> 100 µM"}

====

- Tested on: A498 renal
- assay-remarks: NCI tumour cell line growth inhibition, 48 h
Parameter: TGI. Scope: all listed entries.

{"compound": "Cc1cc(N(CCNc2ccnc3cc(Cl)ccc23)Cc2cccs2)nc(Cl)n1", "TGI": "4.15 µM"}
{"compound": "CC1=NN(C(=O)CC(=O)N(C(=O)c2ccccc2)c2ccc(Cl)cc2)C(=O)C1N=Nc1ccc([N+](=O)[O-])cc1 (stereo not given)", "TGI": "> 10 µM"}
{"compound": "COc1ccc(C(O)c2cc(OC)c(OC)c(OC)c2)cc1 (stereo not given)", "TGI": "> 100 µM"}
{"compound": "NS(=O)(=O)c1nnc(NS(=O)(=O)c2ccc(F)cc2)s1", "TGI": "> 100 µM"}
{"compound": "N#Cc1c(Br)n(C2OC(CO)C(O)C2O)c2ncn3ccnc3c12 (stereo not given)", "TGI": "> 100 µM"}

====

- Test system: K-562 leukemia
- assay-remarks: NCI tumour cell line growth inhibition, 48 h

{"compound": "O=C(OCCOC(=O)c1ccc2c(c1)C1(SCCS1)c1ccccc1-2)c1ccc2c(c1)C1(SCCS1)c1ccccc1-2", "measured-on": "K-562 leukemia", "TGI": "> 100 µM"}
{"compound": "CCCC(=O)c1c(NOC2OCC(OC(C)=O)C(OC(C)=O)C2OC(C)=O)nc(OC)n(C)c1=O (stereo not drawn)", "measured-on": "K-562 leukemia", "TGI": "36 µM"}
{"compound": "CC1=NN(C(=O)CC(=O)Nc2ccccc2)C(=O)C1N=Nc1ccc(C(=O)O)cc1 (stereo not drawn)", "measured-on": "K-562 leukemia", "TGI": "> 100 µM"}
{"compound": "O=C(Nc1ccc(Cl)c(Cl)c1)C(=O)C(C(=O)c1ccccc1F)C1OC(=O)c2ccccc21 (stereo not drawn)", "measured-on": "K-562 leukemia", "TGI": "> 100 µM"}
{"compound": "C=C1C(=O)O[C@H]2[C@H]1CC/C(COC(=O)/C=C\\C(=O)NCc1ccc(Cn3c(=O)sn(CCCI)c3=O)cc1)=C\\CC[C@@]1(C)O[C@@H]21", "measured-on": "K-562 leukemia", "TGI": "13.1 µM"}
{"compound": "Cn1cc(-c2ccc(-c3cn(C)c4ccc(Cl)cc34)[nH]2)c2cc(Cl)ccc21", "measured-on": "K-562 leukemia", "TGI": "2.03 µM"}
{"compound": "O=C1O/C(=C\\c2ccc(O)c(Br)c2)C(c2ccc(O)c(Cl)c2)=C1Br", "measured-on": "K-562 leukemia", "TGI": "58.5 µM"}
{"compound": "NCCCN1CCN(c2ccccc2)CC1", "measured-on": "K-562 leukemia", "TGI": "> 100 µM"}
{"compound": "O=Cc1cn(Cc2ccc(Cl)cc2)c2ccccc12", "measured-on": "K-562 leukemia", "TGI": "> 100 µM"}
{"compound": "Cc1cc(C2CC(O)C(CO)O2)c(Cl)cc1Cl (stereo not drawn)", "measured-on": "K-562 leukemia", "TGI": "> 100 µM"}
{"compound": "COc1cc(/C=C2\\N=C(c3ccccc3)N(c3nc4ccc(Sc5ccccc5)cc4[nH]3)C2=O)ccc1O", "measured-on": "K-562 leukemia", "TGI": "37.3 µM"}
{"compound": "CC1(C)C2CCC13C(=O)C1OC3(C2)C2C(=O)N(c3ccccc3)C(=O)C12 (stereo not drawn)", "measured-on": "K-562 leukemia", "TGI": "> 100 µM"}
{"compound": "CC(=O)NC(CC(C)C)C(=O)NC(CC(C)C)C(=O)NC(C=O)CCCN=C(N)N (stereo not drawn)", "measured-on": "K-562 leukemia", "TGI": "> 100 µM"}

====

Parameter: TGI. Scope: all listed entries.
- Tested on: SNB-75 CNS
- assay-remarks: NCI tumour cell line growth inhibition, 48 h
Where a SMILES comes first, the peptide text is derived from it. [ ]: non-standard residue; d: D form. Ac5c = NC1(C(=O)O)CCCC1

{"molecule": "C[C@]12CCC(=O)CC1CC[C@@H]1C2CC[C@@]2(C)C1CC[C@@H]2OC(=O)CC[Se][Se]CCC(=O)O[C@H]1CCC2[C@@H]3CCC4CC(=O)CC[C@]4(C)C3CC[C@@]21C (stereo partly specified)", "censor-symbol": "=", "TGI (µM)": 3.02}
{"molecule": "O=C1c2cc3ccccc3cc2C2(c3ccc(Cl)cc3)NCCN12 (stereo unspecified)", "censor-symbol": ">", "TGI (µM)": 100}
{"molecule": "Nn1c2c(c3ccccc3c1=O)C(=O)c1ccccc1-2", "censor-symbol": "=", "TGI (µM)": 33.5}
{"molecule": "CN(C(=O)CCC(=O)O)c1ccccc1C(=O)O", "censor-symbol": ">", "TGI (µM)": 100}
{"molecule": "CC[C@@]1(O)C(=O)OCc2c1cc1n(c2=O)Cc2c-1nc1ccccc1c2Cl", "censor-symbol": "=", "TGI (µM)": 0.259}
{"molecule": "CC1=C2C(=O)c3ccccc3C(=O)[C@H]2C[C@@H](N2CCCC2=O)O1", "censor-symbol": "=", "TGI (µM)": 61}
{"molecule": "COC(=O)C1=C(C(=O)OC)C2(CCCCCC2=O)OC1=O (stereo unspecified)", "censor-symbol": ">", "TGI (µM)": 100}
{"molecule": "CC1(O)CCC(C(C)(C)O)CC1 (stereo unspecified)", "censor-symbol": ">", "TGI (µM)": 100}
{"molecule": "C[n+]1c2ccccc2c(Nc2ccc(N3CCCCC3)cc2)c2[nH]c3ccccc3c21", "censor-symbol": "=", "TGI (µM)": 1.91}
{"molecule": "O=C(Nc1ccc(Cl)cc1)c1cc2c(cc1Cl)Sc1nccn1S2(=O)=O", "censor-symbol": "=", "TGI (µM)": 25.2}
{"molecule": "COC(=O)C1(NC(=O)C(C)NC(=O)C(CCCCN)NC(=O)C(CC(C)C)NC(C)=O)CCCC1 (stereo unspecified) (Ac-LKA[Ac5c]-OMe; configuration not given here)", "censor-symbol": ">", "TGI (µM)": 100}
{"molecule": "COc1ccc2nc3ccccc3c(NCc3ccc(Cl)cc3)c2c1", "censor-symbol": "=", "TGI (µM)": 2.62}
{"molecule": "CN(C)CCCNCc1ccc(-c2ccc(F)c(Cl)c2)o1", "censor-symbol": "=", "TGI (µM)": 18.1}
{"molecule": "Cc1ccc(NC(=O)SCCC(=O)O)cc1", "censor-symbol": "=", "TGI (µM)": 66.7}
{"molecule": "CCCCOC(=O)C(=O)C(CC(CC)C(=O)c1ccccc1)C(=O)C=C(C)C (stereo unspecified)", "censor-symbol": ">", "TGI (µM)": 100}
{"molecule": "CC1(C)c2ccccc2C(C)(C)C(C(=O)Nc2ccccc2)C1C(=O)O (stereo unspecified)", "censor-symbol": ">", "TGI (µM)": 100}
{"molecule": "COC(=O)C1Cc2c([nH]c3ccccc23)C(c2ccccc2O)N1 (stereo unspecified)", "censor-symbol": ">", "TGI (µM)": 100}
{"molecule": "Cc1ccc(S(=O)(=O)NC(C(=O)O)C(C)C)cc1 (stereo unspecified)", "censor-symbol": ">", "TGI (µM)": 100}
{"molecule": "O=C1CC2(CCC(O)(c3ccccc3)C(C(=O)c3ccccc3)C2)C(=O)c2ccccc2N1 (stereo unspecified)", "censor-symbol": ">", "TGI (µM)": 100}
{"molecule": "O=C(Nc1ccc([As]=[As]c2ccc(NC(=O)c3ccccc3)cc2)cc1)c1ccccc1 (stereo unspecified)", "censor-symbol": "=", "TGI (µM)": 1.51}
{"molecule": "CCOC(=O)C(NC(=O)CC)(Nc1ccccc1OC)C(F)(F)F (stereo unspecified)", "censor-symbol": ">", "TGI (µM)": 100}
